// data source = PubChem BioAssay (NCI)

- System: SR leukemia
- Procedure Summary: NCI tumour cell line growth inhibition, 48 h; in the data active = GI50 below about 0.43 µM; inactive = the rest
Outcome codes: active, inactive

{"columns": ["Structure Smiles String", "Label Class"],
 "data": [
  ["CCN(CC)CC[n+]1cc2cc(OC)c(OC)cc2c2ccc3cc4c(cc3c21)OCO4", "active"],
  ["Nc1nc(-c2ccc(Cl)cc2)cc(-c2ccccc2)c1-c1nc2ccccc2o1", "inactive"],
  ["O=C(NCCCCCCNC(=O)OCc1ccc2c(Cl)cc(Cl)c(O)c2n1)OCc1ccc2c(Cl)cc(Cl)c(O)c2n1", "active"],
  ["O=[N+]([O-])c1cc2c(c([N+](=O)[O-])c1)Nc1ccccc1O2", "inactive"]
]}
